# System Tested: Group 3 secretory phospholipase A2 (Homo sapiens) (UniProt Q9NZ20)
# Sequence (Q9NZ20 whole entry, looked up): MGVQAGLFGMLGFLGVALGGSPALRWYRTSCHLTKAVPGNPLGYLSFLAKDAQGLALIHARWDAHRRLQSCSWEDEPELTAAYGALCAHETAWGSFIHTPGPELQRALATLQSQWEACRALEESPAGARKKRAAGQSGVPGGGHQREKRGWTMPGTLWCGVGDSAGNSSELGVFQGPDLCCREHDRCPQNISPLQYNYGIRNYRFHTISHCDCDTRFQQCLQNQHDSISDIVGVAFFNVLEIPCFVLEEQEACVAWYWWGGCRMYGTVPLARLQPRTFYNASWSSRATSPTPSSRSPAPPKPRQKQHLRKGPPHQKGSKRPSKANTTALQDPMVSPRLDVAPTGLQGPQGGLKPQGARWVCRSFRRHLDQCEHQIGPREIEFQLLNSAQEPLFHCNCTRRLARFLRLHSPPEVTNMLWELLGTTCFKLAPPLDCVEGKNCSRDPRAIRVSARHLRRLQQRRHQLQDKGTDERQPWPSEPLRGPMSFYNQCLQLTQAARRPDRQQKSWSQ
# Test Method Notes: human group III sPLA2 inhibitors, primary screen, biochemical, QFRET, BODIPY PC-A2 liposome substrate (AID 743126);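 further: 0% = median of test compound wells and 100% = no enzyme DMSO wells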
# Condition Label: QFRET BODIPY PC-A2 liposome hydrolysis, fluorescence; at 12.2 µM; stronger effect = higher value
Among all 370,000 compounds or so, about 2,100 (0.57%) were called active. This excerpt belongs to a sample that is enriched for actives.
Give class 1 when the value for inhibition is at least -10%. Give class 0 when it is less.

Solved entries:
1) CC(C)=CCCC1(C)C=Cc2c(ccc3c2[nH]c2cc(O)c(C)cc23)O1 (stereo not given)
class 1
2) O=C(NC1CCCCN(Cc2cccc(C(F)(F)F)c2)C1=O)c1ccccc1I (stereo not given)
class 1
3) CCC(=O)Nc1ccc2c(c1)C(=O)N(C)[C@H]1CC[C@H](CC(=O)NCCOC)O[C@@H]1CO2
class 1

Task: hey, is inhibition for this one >= -10%? Cc1cc(C(=O)NN=C/C=C/c2ccco2)n[nH]1
Output: class 1

Task: Entry Cc1ccc(CC2(C)C(=O)Nc3ccc(OC(F)(F)F)cc32)cc1 (stereo not given) : is its inhibition no less than -10%?
Output: class 1

Task: Determine whether measured inhibition meets or exceeds -10% for CCCCCOC(=O)c1ccc(N2C(=O)C3C4C=CC(C4)C3C2=O)cc1 (stereo not given)
Output: class 0

Task: Could you tell me if the measured inhibition of CCOc1ccc(-n2c(SCC(=O)Nc3cc(C)c(NC(=O)c4ccccc4)cc3OC)nnc2-c2cccs2)cc1 reaches -10% or more?
Output: class 0

Task: Confirm if inhibition reported for the molecule COc1ccc(S[C@]2(C(=O)N(C)C)CC(=O)N(c3ccc(OC)cc3)[C@@H]2c2ccc(OC)cc2)cc1 is -10% or above.
Output: class 0

Task: Is it the case that CC(=O)OC12CCCN(C1)/C(=C/c1ccncc1)C2 (stereo not given) has inhibition reaching or exceeding -10%?
Output: class 1

Task: Decide: inhibition of O=C(CC(=O)N/N=C\c1cccc(Cl)c1Cl)NCc1ccccc1 >= -10%?
Output: class 0

Cited source: PubChem BioAssay AID743126
